System: ovariectomized (ovex) rats
METHOD NOTES: Uterine wet weight in ovariectomized rats
EXPERIMENTAL CONTEXT: ovex rats, 1 mg/kg oral; relative to estrogen treated ovex animals
Where a name gives a salt, the structure may show the parent alone.
In this section we review reported % Uterine Weight Gain values for a set of compounds.
RECORDED ENDPOINT: % Uterine Weight Gain (%)

>>> readout_value("CCCCOC(=O)Oc1ccc(-c2sc3cc(OC(=O)OCCCC)ccc3c2C(=O)c2ccc(OCCN3CCCCC3)cc2)cc1.Cl")
32
>>> readout_value("CCCC(=O)Oc1ccc(-c2sc3cc(OC(=O)CCC)ccc3c2C(=O)c2ccc(OCCN3CCCCC3)cc2)cc1 [Compound 6, Hydrochloride]")
19
>>> readout_value("CC(C)(C)CC(=O)Oc1ccc(-c2sc3cc(OC(=O)CC(C)(C)C)ccc3c2C(=O)c2ccc(OCCN3CCCCC3)cc2)cc1 [Compound 10, Hydrochloride]")
24
>>> readout_value("O=C(Oc1ccc(-c2sc3cc(OC(=O)c4ccc(F)cc4)ccc3c2C(=O)c2ccc(OCCN3CCCCC3)cc2)cc1)c1ccc(F)cc1 [Compound 2, Hydrochloride]")
26
>>> readout_value("Cc1ccc(C(=O)Oc2ccc(-c3sc4cc(OC(=O)c5ccc(C)cc5)ccc4c3C(=O)c3ccc(OCCN4CCCCC4)cc3)cc2)cc1 [Compound 11, Hydrochloride]")
28
>>> readout_value("O=C(Oc1ccccc1)Oc1ccc(-c2sc3cc(OC(=O)Oc4ccccc4)ccc3c2C(=O)c2ccc(OCCN3CCCCC3)cc2)cc1 [Compound 16, hydrochloride]")
25
>>> readout_value("CC(C)(C)C(=O)Oc1ccc(-c2sc3cc(OC(=O)C(C)(C)C)ccc3c2C(=O)c2ccc(OCCN3CCCCC3)cc2)cc1.Cl")
24
>>> readout_value("COCC(=O)Oc1ccc(-c2sc3cc(OC(=O)COC)ccc3c2C(=O)c2ccc(OCCN3CCCCC3)cc2)cc1")
17

Where do these numbers come from? They come from patent US6906086B2.
